Test system: Rattus norvegicus
ASSAY PROCEDURE: Antihyperlipidemic activity in Triton WR-1339-induced hyperlipidemic rat assessed as decrease in plasma triglyceride level at 100 mg/kg, po relative to control
Assay type: functional
Parameters: scale not given: the % may be the effect or the level left
Would you kindly list Activity for each of these compounds?
Give bare numbers, in %.

Solved cases below.
COMPOUND | ENDPOINT NAME | REPORTED
CCOC(=O)C(C)(C)Oc1ccc(C(c2c[nH]c3ccccc23)c2c[nH]c3ccccc23)cc1 | Activity | 6
CCOC(=O)C(C)Oc1ccc(C(c2cn(C)c3ccccc23)c2cn(C)c3ccccc23)cc1 (stereo not drawn) | Activity | 8

Now consider the entry below.
Query :: Fill in the blank: the reported Activity of Cc1ccc(C)c(OCCCC(C)(C)C(=O)O)c1 is ____.
Result :: 35

Data provenance: ChEMBL document CHEMBL2029264
